Entry source: ChEMBL document CHEMBL1126697

- Tested on: Human immunodeficiency virus 1
- Experiment: Inhibition of HIV-1 replication in human lymphocytes [peripheral blood mononuclear cells (PBMC)/D34 was determined as effective dose
- Type: functional
- Measurement setup: read-out: ED50 (the source's name)
Attribute measured: EC50 (nM)
Form entry: value (nM) — number only.

Exercise: Quick one: EC50 of "CCNc1cccnc1N1CCN(C(=O)c2cc3cc(O)ccc3[nH]2)CC1" ?
Solution: 10

---

Assignment: determine reported inhibition for the given compounds.
- Assayed target: Human immunodeficiency virus type 1 reverse transcriptase (Human immunodeficiency virus 1) (UniProt Q72547)
- Experiment: In vitro inhibition of HIV-1 reverse transcriptase at 100 uM
Expressed in %, but write only the number.

Exercise: Need inhibition, item "CC(C)Nc1cccnc1N1CCN(C(=O)c2cc3ccc(OS(C)(=O)=O)cc3[nH]2)CC1"
Solution: 97

Exercise: Please give the measured inhibition for this compound: "CC(C)Nc1cccnc1N1CCN(C(=O)c2cc3cc(N(C)S(C)(=O)=O)ccc3[nH]2)CC1"
Solution: 95

Exercise: inhibition for "CC(C)Nc1cccnc1N1CCN(C(=O)c2cc3ccc(C#N)cc3[nH]2)CC1" ?
Solution: 74

Exercise: Tell me the measured inhibition of "Cc1ccnc2c1NC(=O)c1cccnc1N2C1CC1" , please.
Solution: 93

Exercise: Requested read-out: inhibition. Entry: "CC(=O)Nc1ccc2[nH]c(C(=O)N3CCN(c4ncccc4NC(C)C)CC3)cc2c1"
Solution: 94

Exercise: Request the reported inhibition associated with "CC(C)Nc1cccnc1N1CCN(C(=O)c2cc3ccc(O)cc3[nH]2)CC1"
Solution: 97

Exercise: Can you share its inhibition? I mean this compound: "CC(C)Nc1cccnc1N1CCN(C(=O)c2cc3cc(NS(=O)(=O)C(F)(F)F)ccc3[nH]2)CC1"
Solution: 94

Exercise: Which measured inhibition value corresponds to "CCc1cc(NCc2nc3c(Cl)ccc(Cl)c3o2)c(O)nc1C" ?
Solution: 98

Exercise: GET /values?readout=inhibition&item= "CCNc1cccnc1N1CCN(C(=O)c2cc3cc(O)ccc3[nH]2)CC1"
Solution: 89

Exercise: Any idea what inhibition was measured for "COc1ccc2cc(C(=O)N3CCN(c4ncccc4NC(C)C)CC3)[nH]c2c1" ?
Solution: 97

---

- Assayed target: Human immunodeficiency virus type 1 reverse transcriptase (Human immunodeficiency virus 1)
- Experiment: In vitro inhibition of HIV-1 reverse transcriptase at 100 uM
Where a name gives a salt, the structure may show the parent alone.
Attribute measured: inhibition (%)
Output spec: scalar in %, unitless text.

Exercise: Item under review: CCNc1cccnc1N1CCN(C(=O)c2cc3cc(OC)ccc3[nH]2)CC1 [ATEVIRDINE MESYLATE] . Reported inhibition?
Solution: 92

Exercise: Endpoint output: inhibition of "CC(C)Nc1cccnc1N1CCN(C(=O)c2cc3ccc(NS(C)(=O)=O)cc3[nH]2)CC1" . Value?
Solution: 98

Exercise: What does the record list as inhibition for "CC(C)Nc1cccnc1N1CCN(C(=O)c2cc3cc(OCc4ccccc4)ccc3[nH]2)CC1" ?
Solution: 74

Exercise: Would you mind telling me what inhibition value was observed for "CC(C)Nc1cccnc1N1CCN(C(=O)c2cc3cc(NC(=O)C(F)(F)F)ccc3[nH]2)CC1" ?
Solution: 85

Exercise: Entry under review: "CC(C)Nc1cccnc1N1CCN(C(=O)c2cc3ccc(CO)cc3[nH]2)CC1" . Reported inhibition?
Solution: 98

Exercise: Look at this compound and give its reported inhibition. "CC(C)Nc1cccnc1N1CCN(C(=O)c2cc3cc(OS(C)(=O)=O)ccc3[nH]2)CC1"
Solution: 97

Exercise: For the compound shown here, "CC(C)Nc1cccnc1N1CCN(C(=O)c2cc3ccc(OCc4ccccc4)cc3[nH]2)CC1" , give the reported inhibition.
Solution: 65

Exercise: What inhibition value was documented for this compound, "CC(C)Nc1cccnc1N1CCN(C(=O)c2cc3cc(O)ccc3[nH]2)CC1" ?
Solution: 98

Exercise: Find the recorded inhibition belonging to "CC(C)Nc1cccnc1N1CCN(C(=O)c2cc3ccc(C=O)cc3[nH]2)CC1" and report it.
Solution: 94

Exercise: I'd like to know its inhibition. The compound in question is "CC(C)Nc1cccnc1N1CCN(C(=O)c2cc3ccccc3[nH]2)CC1"
Solution: 96

Exercise: Can you share its inhibition? I mean this compound: "Cc1ccc2[nH]c(C(=O)N3CCN(c4ncccc4NC(C)C)CC3)cc2c1"
Solution: 68

Exercise: Which inhibition reading was recorded for the compound "CC(C)Nc1cccnc1N1CCN(C(=O)c2cc3cc(N)ccc3[nH]2)CC1" ?
Solution: 94

Exercise: # inhibition lookup, item "COC(=O)Nc1ccc2[nH]c(C(=O)N3CCN(c4ncccc4NC(C)C)CC3)cc2c1"
Solution: 96

Exercise: I have this compound here, "CCNc1cccnc1N1CCN(C(=O)c2cc3ccccc3[nH]2)CC1" , and I need its recorded inhibition.
Solution: 96

Exercise: Item under review: "CC(C)Nc1cccnc1N1CCN(C(=O)c2cc3ccc(F)cc3[nH]2)CC1" . Reported inhibition?
Solution: 96

---

Attribute measured: pIC50
Field pIC50 (float): negative decimal logarithm of the concentration in molar.

Exercise: Entry "CC(C)Nc1cccnc1N1CCN(C(=O)c2cc3ccc(CO)cc3[nH]2)CC1" , system UniProtKB Q72547: what pIC50 was measured?
Solution: 6.12

Exercise: Query for UniProtKB Q72547: what pIC50 does the record show for "CC(C)Nc1cccnc1N1CCN(C(=O)c2cc3ccc(F)cc3[nH]2)CC1" ?
Solution: 5.36

Exercise: Please provide the recorded pIC50 for "CC(C)Nc1cccnc1N1CCN(C(=O)c2cc3ccc(OCc4ccccc4)cc3[nH]2)CC1" , tested on UniProtKB Q72547.
Solution: 4.43

Exercise: Value wanted: pIC50 (UniProtKB Q72547) of entry "COC(=O)Nc1ccc2[nH]c(C(=O)N3CCN(c4ncccc4NC(C)C)CC3)cc2c1"
Solution: 5.60

---

- Test system: Human immunodeficiency virus 1
- Experiment: Inhibition of HIV-1 D34 replication in human peripheral blood mononuclear cells.
- Type: functional
- Measurement setup: read-out: ED50 (the source's name)
Counter-ions that a name gives are not always drawn.
Give pEC50 for every item shown.
Just the number, please; pEC50 means minus log10 of the concentration in mol/L.

Exercise: For the compound "CC(C)Nc1cccnc1N1CCN(C(=O)c2cc3ccccc3[nH]2)CC1" , what pEC50 is on record?
Solution: 9.00

Exercise: Quick check: pEC50 of "CC(C)Nc1cccnc1N1CCN(C(=O)c2cc3ccc(OCc4ccccc4)cc3[nH]2)CC1" ?
Solution: 7.00

Exercise: pEC50 for CC(C)Nc1cccnc1N1CCN(C(=O)c2cc3cc(NS(C)(=O)=O)ccc3[nH]2)CC1 [DELAVIRDINE] ?
Solution: 10.00

Exercise: If you can, please state the reported pEC50 value of Cc1cn([C@H]2C[C@H](N=[N+]=[N-])[C@@H](CO)O2)c(=O)[nH]c1=O [ZIDOVUDINE] .
Solution: 9.00

Exercise: Query (compound): "CC(C)Nc1cccnc1N1CCN(C(=O)c2cc3cc(OCc4ccccc4)ccc3[nH]2)CC1" ; field requested: pEC50
Solution: 8.00

Exercise: What value of pEC50 has been recorded for this entry: "COc1ccc2cc(C(=O)N3CCN(c4ncccc4NC(C)C)CC3)[nH]c2c1"
Solution: 8.00

Exercise: Requested read-out: pEC50. Entry: "CC(=O)Nc1ccc2[nH]c(C(=O)N3CCN(c4ncccc4NC(C)C)CC3)cc2c1"
Solution: 8.00

Exercise: Param item = "CC(C)Nc1cccnc1N1CCN(C(=O)c2cc3ccc(C=O)cc3[nH]2)CC1" ; retrieve measured pEC50.
Solution: 10.00

Exercise: What pEC50 value was documented for this compound, CCNc1cccnc1N1CCN(C(=O)c2cc3cc(OC)ccc3[nH]2)CC1 [ATEVIRDINE MESYLATE] ?
Solution: 9.00

Exercise: // pEC50 lookup, key: Cc1ccnc2c1NC(=O)c1cccnc1N2C1CC1 [NEVIRAPINE]
Solution: 8.00

Exercise: What does the data say about its pEC50? Entry: "CCNc1cccnc1N1CCN(C(=O)c2cc3ccccc3[nH]2)CC1"
Solution: 8.00

Exercise: I'd like to know its pEC50. The compound in question is "CC(C)Nc1cccnc1N1CCN(C(=O)c2cc3ccc(NS(C)(=O)=O)cc3[nH]2)CC1"
Solution: 10.00

Exercise: Consider the compound shown here: "Cc1ccc2[nH]c(C(=O)N3CCN(c4ncccc4NC(C)C)CC3)cc2c1" What is its recorded pEC50?
Solution: 8.00

---

- Assayed target: Human immunodeficiency virus type 1 reverse transcriptase (Human immunodeficiency virus 1, UniProt Q72547)
Attribute measured: pIC50
Hey, just a heads up that pIC50 is the negative log base 10 of the concentration in molar.

Exercise: If you can, please state the reported pIC50 value of "CC(C)Nc1cccnc1N1CCN(C(=O)c2cc3cc(NC(=O)C(F)(F)F)ccc3[nH]2)CC1" .
Solution: 4.57

Exercise: Consider the molecule "CC(C)Nc1cccnc1N1CCN(C(=O)c2cc3cc(OCc4ccccc4)ccc3[nH]2)CC1" and give its measured pIC50.
Solution: 5.37

Exercise: Sample "CC(C)Nc1cccnc1N1CCN(C(=O)c2cc3ccc(NS(C)(=O)=O)cc3[nH]2)CC1" — what was its pIC50?
Solution: 6.30
